# assay overview: Distribution between mouse plasma and brain (brain penetration, ip)
# Assay type: in vivo
# assay setup: Table 14; mice, single ip dose 5 mg/kg, one hour post-dose
recorded endpoint: Brain/plasma ratio

O=C(Nc1ccc2sc(-c3ccc(F)c(F)c3)nc2c1)N1CC[C@@H](F)C1 [Compound 4]	4.86

(a) O=C(Nc1ccc2sc(-c3ccc(F)c(F)c3)nc2c1)N1CCC(C(F)(F)F)C1 (centres unmarked) [Compound 10]
(b) O=C(Nc1ccc2sc(-c3ccc(F)c(F)c3)nc2c1)N1CCCC1 [Compound 2]
(c) CN(C)C1CCN(C(=O)Nc2ccc3sc(-c4ccc(F)c(F)c4)nc3c2)C1 (centres unmarked) [Compound 11]
(d) O=C(Nc1ccc2sc(-c3ccc(F)c(F)c3)nc2c1)N1CCC(F)(F)C1 [Compound 9]
Ask: Order the records, beginning with the lowest Brain/plasma ratio and ending with the highest. API: response body holds the labels in the requested order.
Result: a, b, c, d
